PROCEDURE_SUMMARY: In vivo pharmacokinetics: plasma and brain exposure after IP administration
Design: species or system male C57BL/6 mice
RUN_CONDITIONS: male, C57BL/6, mouse, plasma; IP 10 mg/kg; read-out: Plasma AUC0-4 h
Recorded measurements of AUC(0-t), one per entry
Answer format: numeric, µM·h implied, no suffix.

Task: Endpoint output: AUC(0-t) of COc1ccc2cccc(CCN(C)C3CC3)c2c1 . Value?
Output: 1.71

Task: Same again, this time with COc1ccc2cccc(CCN(C)C(C)C)c2c1
Output: 1.82

###

PROCEDURE_SUMMARY: In vivo pharmacokinetics: plasma and brain exposure after IP administration
Set-up: species or system male C57BL/6 mice
RUN_CONDITIONS: male, C57BL/6, mouse, plasma; IP 10 mg/kg
MEASURED_ATTRIBUTE: Tmax
Dear colleague, please send the value followed by its unit.

Task: Entry COc1ccc2cccc(CCN(C)C(C)C)c2c1 [Example I-7] : reported Tmax = ?
Output: 30 min

Alright, here's another compound for you.
Task: Value lookup for Tmax; key = COc1ccc2cccc(CCN(C)C3CC3)c2c1 [Example I-15]
Output: 5 min

###

// values below are reported Kp at 0.5 h
PROCEDURE_SUMMARY: In vivo pharmacokinetics: plasma and brain exposure after IP administration
Design: species or system male C57BL/6 mice
RUN_CONDITIONS: male, C57BL/6, mouse, brain/plasma, ip, 10 mg/kg, 0.5 h, n = 3, read-out: B:P Ratio Mean ± SD

Task: // Kp at 0.5 h lookup, key: COc1ccc2cccc(CCN(C)C3CC3)c2c1 [Example I-15]
Output: 7.4

Task: Note, next up: COc1ccc2cccc(CCN(C)C(C)C)c2c1 [Example I-7]
Output: 21

###

EXPERIMENTAL_TARGET: 5-HT2A (Homo sapiens)
Construct: host or cells: HEK293
PROCEDURE_SUMMARY: FLIPR Ca2+ flux functional assay, 5-HT2A receptor (stably transfected HEK293)
Assay type: cell-based
RUN_CONDITIONS: agonist activity, Ca2+ flux, HEK293
MEASURED_ATTRIBUTE: Emax (%)
Only the number, expressed in %, is required.

Task: Query the reported Emax for 5-HT2A (Homo sapiens); item: COc1ccc2cccc(CCN(C)C)c2c1 [Example I-1]
Output: 79

Task: Here is the next compound: CCCN(CCC)CCc1cccc2cccc(OC)c12 [Example I-23]
Output: 93

Task: Let us now turn to CCN(C)CCc1cccc2ccccc12 [Example I-33]
Output: 58

Task: // next record CCN(C)CCc1cccc2ccc(F)cc12 [Example I-39]
Output: 58

Task: Now consider CC(C)N(C)CCc1cccc2ccc(F)cc12 [Example I-40] and answer again.
Output: 68

###

EXPERIMENTAL_TARGET: 5-HT2B (Homo sapiens, UniProt P41595)
Construct: host or cells: CHO-K1
Sequence (P41595 whole entry): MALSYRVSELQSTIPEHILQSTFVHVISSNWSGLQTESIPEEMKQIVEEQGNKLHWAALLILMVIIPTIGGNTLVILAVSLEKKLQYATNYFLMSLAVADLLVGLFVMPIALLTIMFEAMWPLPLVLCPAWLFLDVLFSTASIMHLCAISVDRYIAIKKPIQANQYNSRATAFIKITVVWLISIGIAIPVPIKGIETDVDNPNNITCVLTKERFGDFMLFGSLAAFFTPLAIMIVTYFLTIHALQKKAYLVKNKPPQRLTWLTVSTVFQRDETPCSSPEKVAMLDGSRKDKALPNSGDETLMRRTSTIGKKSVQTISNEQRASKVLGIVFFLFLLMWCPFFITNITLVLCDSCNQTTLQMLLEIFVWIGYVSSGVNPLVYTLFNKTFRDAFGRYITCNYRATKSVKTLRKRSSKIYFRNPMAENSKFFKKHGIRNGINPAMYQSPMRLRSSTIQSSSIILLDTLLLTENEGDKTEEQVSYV
PROCEDURE_SUMMARY: FLIPR Ca2+ flux functional assay, 5-HT2B receptor (stably transfected CHO-K1)
Type: cell-based
RUN_CONDITIONS: agonist activity, Ca2+ flux, CHO-K1
MEASURED_ATTRIBUTE: Emax
Kindly report the value followed by its unit.

Some entries whose results are on file:
Task: // query Emax value for entry CCCN(CCC)CCc1cccc2cccc(OC)c12
Output: 89%

Task: Queued: CCN(C)CCc1cccc2ccc(OC)cc12
Output: 17%

Task: Field entry: CCN(CC)CCc1cccc2ccc(OC)cc12
Output: 12%

Task: Request: COc1ccc2cccc(CCN(C(C)C)C(C)C)c2c1
Output: 123%

Task: Okay, and COc1cnc2cccc(CCN(C)C)c2c1 ?
Output: 1%

Proceed to the following item.
Task: Need Emax of COc1ccc2cccc(CCN(C)C(C)C)c2c1 , thanks.
Output: 36%

###

PROCEDURE_SUMMARY: In vivo pharmacokinetics: plasma and brain exposure after IP administration
Design: species or system male C57BL/6 mice
RUN_CONDITIONS: male, C57BL/6, mouse, plasma, ip, 10 mg/kg, 0.083 h, n = 3, read-out: Plasma Concentration (μM) Mean ± SD
The reader will find reported concentration at 0.083 h values listed item by item below.

Task: Return reported concentration at 0.083 h; argument: COc1ccc2cccc(CCN(C)C(C)C)c2c1
Output: 0.864 µM

Please find the next compound below.
Task: Quick one: concentration at 0.083 h for COc1ccc2cccc(CCN(C)C3CC3)c2c1 ?
Output: 1.72 µM

###

EXPERIMENTAL_TARGET: 5-HT2A (Homo sapiens, UniProt P28223)
Construct: host or cells: HEK293
Sequence (P28223 whole entry): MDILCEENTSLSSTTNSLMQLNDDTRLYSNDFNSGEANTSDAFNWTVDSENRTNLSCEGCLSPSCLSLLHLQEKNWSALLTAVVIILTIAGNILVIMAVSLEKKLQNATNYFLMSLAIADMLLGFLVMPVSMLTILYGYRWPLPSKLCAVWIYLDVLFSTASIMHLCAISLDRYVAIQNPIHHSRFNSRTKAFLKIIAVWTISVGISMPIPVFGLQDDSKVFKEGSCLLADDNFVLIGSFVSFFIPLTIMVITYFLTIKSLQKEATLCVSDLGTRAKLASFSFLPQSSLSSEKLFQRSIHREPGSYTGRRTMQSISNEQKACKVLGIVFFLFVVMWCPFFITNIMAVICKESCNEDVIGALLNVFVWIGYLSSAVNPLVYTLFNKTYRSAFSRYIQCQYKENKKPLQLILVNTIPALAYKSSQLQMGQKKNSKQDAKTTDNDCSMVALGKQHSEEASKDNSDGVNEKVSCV
PROCEDURE_SUMMARY: FLIPR Ca2+ flux functional assay, 5-HT2A receptor (stably transfected HEK293)
Type: cell-based
RUN_CONDITIONS: agonist activity, Ca2+ flux, HEK293
Measured Emax values are reported for all entries that follow.
Numbers only here, please. The scale is %.

Task: Which value of Emax has been reported for CN(C)CCc1cccc2ccc(Cl)cc12 in the records?
Output: 63

Task: Cool, now COc1cccc2cccc(CCN(C)C3CC3)c12
Output: 48

Task: Also CCN(C)CCc1cccc2cccc(OC)c12 ?
Output: 67

Task: // query: CN(C)CCc1cccc2ccc(F)cc12
Output: 66

Task: Can you handle CCCN(C)CCc1cccc2cccc(OC)c12 next?
Output: 86

Task: Would you mind doing CN(CCc1cccc2ccc(F)cc12)C1CC1 as well?
Output: 33

Task: Would you mind doing COc1ccc2cccc(CCN(C)C3CC3)c2c1 as well?
Output: 70

Task: Now give it for COc1cccc2c(CCN)cccc12 too.
Output: 79

Task: Check COc1cccc2cccc(CCN(C)C(C)C)c12 too.
Output: 94

Task: Moving on to COc1cccc(CNCCc2cccc3ccc(OC)cc23)c1
Output: 84

New cases:
Task: For the compound CCCN(C)CCc1cccc2ccc(OC)cc12 , what Emax is on record?
Output: 81

Task: Now this one: CC(C)N(C)CCc1cccc2cccc(O)c12
Output: 79

Task: And for COc1cccc2cccc(CCN(C)C)c12 ?
Output: 49

Task: // query: CCCN(CCC)CCc1cccc2ccc(OC)cc12
Output: 77

###

Entries annotated with measured concentration at 0.5 h
PROCEDURE_SUMMARY: In vivo pharmacokinetics: plasma and brain exposure after IP administration
Set-up: species or system male C57BL/6 mice
RUN_CONDITIONS: male, C57BL/6, mouse, plasma, ip, 10 mg/kg, 0.5 h, n = 3, read-out: Plasma Concentration (μM) Mean ± SD
Give your result in µM as a bare value.

Task: Using the record for COc1ccc2cccc(CCN(C)C3CC3)c2c1 , report its concentration at 0.5 h.
Output: 0.823

Next:
Task: Query: concentration at 0.5 h; subject: COc1ccc2cccc(CCN(C)C(C)C)c2c1
Output: 1.18

###

PROCEDURE_SUMMARY: In vivo pharmacokinetics: plasma and brain exposure after IP administration
Design: species or system male C57BL/6 mice
RUN_CONDITIONS: male, C57BL/6, mouse, brain/plasma, ip, 10 mg/kg, 0.083 h, individual mice, read-out: B:P Ratio Individual
MEASURED_ATTRIBUTE: Kp at 0.083 h
Note: the reply should be a number with no unit written.

Task: Which Kp at 0.083 h is listed for COc1ccc2cccc(CCN(C)C(C)C)c2c1 [Example I-7] ?
Output: 9.2

Could you now consider this next molecule?
Task: I am curious: what Kp at 0.083 h value has been reported for COc1ccc2cccc(CCN(C)C3CC3)c2c1 [Example I-15] ?
Output: 7.3

###

# Emax per record follows
EXPERIMENTAL_TARGET: 5-HT2B (Homo sapiens, UniProt P41595)
Construct: host or cells: CHO-K1
PROCEDURE_SUMMARY: FLIPR Ca2+ flux functional assay, 5-HT2B receptor (stably transfected CHO-K1)
Format: cell-based
RUN_CONDITIONS: agonist activity, Ca2+ flux, CHO-K1
Protocol: Activity at 5-HT2A, 5-HT2B and 5-HT2C receptors was determined using a FLIPR Ca^2+ flux assay at WuXi AppTec Co. Ltd. (Hong Kong) Discovery Biology Unit according to their standard protocols. […] 10 μL of references and compounds were then transferred from the compound plate into the cell plate and the fluorescent signal was read.
Number only, in %; omit the unit.

// solved cases for Emax follow
Task: Emax lookup needed for CCCN(C)CCc1cccc2cccc(OC)c12 , thanks.
Output: 2

Task: Please answer likewise for CCN(CC)CCc1cccc2cccc(OC)c12
Output: 34

Task: Next up: COc1ccc2cccc(CCN(C)C)c2n1
Output: 8

Switching to the query record.
Task: I would be grateful if you could share the reported Emax for COc1cccc2cccc(CCN(C)C(C)C)c12 .
Output: 46

###

Documented EC50 across a set of compounds
EXPERIMENTAL_TARGET: 5-HT2A (Homo sapiens)
Construct: host or cells: HEK293
PROCEDURE_SUMMARY: FLIPR Ca2+ flux functional assay, 5-HT2A receptor (stably transfected HEK293)
Type: cell-based
RUN_CONDITIONS: agonist activity, Ca2+ flux, HEK293; read-out: 5-HT2A EC50
All answers are understood in nM, so give the number only.

Answered examples (3):
Task: // lookup EC50 | system=5-HT2A (Homo sapiens) | key= CN(CCc1cccc2cccc(O)c12)C1CC1
Output: 60

Task: And COc1ccc2cccc(CCN(C)C)c2c1 ?
Output: 96

Task: Moving on to COc1cccc2cccc(CCN(C)C3CC3)c12
Output: 496

Next compound, EC50 to be filled in.
Task: State its EC50 on 5-HT2A (Homo sapiens): CN(C)CCc1cccc2cccc(O)c12
Output: 53
